# experiment: Metabolic stability in dog liver microsomes assessed as intrinsic clearance measured per mg protein
# Format: ADME, Canis lupus familiaris, Microsome
# condition_description: read-out: CLH
Please provide measured microsomal CLint for the entries that follow.
The response must be a number in µL/min/mg with no trailing unit.

Report microsomal CLint for C=CC(=O)N1CCN(c2c(C#N)c(=O)n(-c3c(C)ccnc3C(C)C)c3nc(-c4c(F)c(F)c(F)c(N)c4Cl)c(Cl)cc23)CC1 (atropisomer M)
14.1

Please report the measured microsomal CLint for C=CC(=O)N1CCN(c2c(C#N)c(=O)n(-c3c(C)ccnc3C(C)C)c3nc(-c4c(N)c(F)c(F)c(F)c4F)c(Cl)cc23)CC1 (atropisomer M)
8.33

Tell me measured microsomal CLint for C=CC(=O)N1CCN(c2c(C#N)c(=O)n(-c3c(C)ccnc3C(C)C)c3nc(-c4c(N)c(Cl)cc(Cl)c4F)c(Cl)cc23)CC1 (atropisomer M) please.
13.6
